Molecular target: KRAS G12C (Homo sapiens (Human), UniProt P01116, C118A/G12C)
Sequence (P01116 other isoform, or with tags, fused parts or gaps G12C/C118A): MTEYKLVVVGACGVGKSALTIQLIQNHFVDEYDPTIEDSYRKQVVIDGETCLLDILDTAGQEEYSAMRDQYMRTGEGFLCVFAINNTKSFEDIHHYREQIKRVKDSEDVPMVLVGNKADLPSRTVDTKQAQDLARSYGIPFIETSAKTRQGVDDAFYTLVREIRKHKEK
Assay: 2 h coupled exchange assay
Type: biochemical
Conditions: Avg 2 h Coupled exchange IC50, 2 h compound pre-incubation, SOS-mediated nucleotide exchange
Experimental: The term “2 h coupled exchange assay” or “20 h coupled exchange assay” as used herein refers to the assay described in the Section entitled “BIOLOGICAL EVALUATION.”
pIC50: −log10 of the molar value.
Parameter: pIC50. Scope: all listed entries.

compound	pIC50
C=CC(=O)N1CC2(CCN(c3nc4c(c(-c5c(C)ccc6cnn(C)c56)c3C#N)COC(C)(C)C4)C2(C)C)C1	6.18
C=CC(=O)N1CC2(CCN(c3nc4c(c(-c5c(C)ccc6cnn(C)c56)c3C#N)COC(C)(C)C4)C2)C1 (single isomer, unassigned) [Example 13-59]	4.49
C=CC(=O)N1CC2(CCN(c3nc4c(c(-c5c(C)ccc6[nH]ncc56)c3C#N)CCCC4(F)F)C2)C1	6.49
C=CC(=O)N1CC2(CCN(c3nc4ccccc4c(-c4cccc5sc(N)nc45)c3C#N)C2)C1	6.27
C=CC(=O)N1CC2(CCN(c3nc4c(c(-c5cc(O)ccc5C)c3C#N)C[C@H]3C[C@@H]4C3(C)C)C2)C1 (single isomer, unassigned) [Example 2-68]	4.80
C=CC(=O)N1CC2(CCN(c3nc4c(c(-c5c(C)ccc6[nH]ncc56)n3)CCCC4)C2)C1	5.24

* * *

# IC50 listing for each entry below
Target: KRAS G12C (Homo sapiens (Human), UniProt P01116, C118A/G12C)
Test: 2 h coupled exchange assay
Format: biochemical
Conditions: Avg 2 h Coupled exchange IC50, 2 h compound pre-incubation, SOS-mediated nucleotide exchange
Description: The term “2 h coupled exchange assay” or “20 h coupled exchange assay” as used herein refers to the assay described in the Section entitled “BIOLOGICAL EVALUATION.”
reported endpoint: IC50 (nM)

molecule	readout unit	readout number
C=CC(=O)N1CC2(CCN(c3nc4c(c(-c5c(C)ccc6cnn(C)c56)c3C#N)CC(C)(C)C4)C2)C1 (single isomer, unassigned) [Example 13-17]	nM	19900
C=CC(=O)N1CC2(CCN(c3nc4c(c(-c5cc(O)c(F)c6ccccc56)c3C#N)CC(C)(C)C4)C2)C1	nM	291
C=CC(=O)N1CC2(CCN(c3nc4c(c(-c5c(C)ccc6cnn(C)c56)c3C#N)COC4(C)C)C2)C1 (single isomer, unassigned) [Example 13-57]	nM	361
C=CC(=O)N1CC2(CCN(c3nc4c(c(-c5c(C)ccc6cnn(C)c56)c3C#N)C[C@H]3C[C@@H]4C3(C)C)[C@H]2CO)C1	nM	334
C=CC(=O)N1CC2(CCN(c3nc4c(c(-c5c(C)ccc6cnn(C)c56)c3C#N)C[C@H]3C[C@@H]4C3)[C@H]2C)C1 (single isomer, unassigned) [Example 13-31]	nM	652
C=CC(=O)N1CC2(CCN(c3nc4c(c(-c5c(C)ccc6cnn(C)c56)c3C#N)[C@H]3C[C@@H](C4)C3)C2)C1 [Example 13-131]	nM	101

* * *

Target: KRAS G12C (Homo sapiens (Human), UniProt P01116, C118A/G12C)
Assay: 2 h coupled exchange assay
Format: biochemical
Conditions: Avg 2 h Coupled exchange IC50, 2 h compound pre-incubation, SOS-mediated nucleotide exchange

compound	target	IC50 [µM]
C=CC(=O)N1CC2(CCN(c3nc4c(c(-c5ccccc5Cl)c3C#N)CCC(c3ccnn3C)C4)C2)C1 (stereo not shown) [Example 13-19]	KRAS G12C (Homo sapiens (Human), UniProt P01116, C118A/G12C)	0.064
C=CC(=O)N1CC2(CCN(c3nc4c(c(-c5c(C)cc(F)c6[nH]ncc56)c3C#N)COC(C)(C)C4)C2)C1 [Example 13-147]	KRAS G12C (Homo sapiens (Human), UniProt P01116, C118A/G12C)	0.098
C=CC(=O)N1CC2(CCN(c3nc4c(c(-c5cccc6cc(O)ccc56)c3C)CCC(C)(C)C4)C2)C1 (single isomer, unassigned) [Example 2-14]	KRAS G12C (Homo sapiens (Human), UniProt P01116, C118A/G12C)	2.9
C=CC(=O)N1CC2(CCN(c3nc4c(c(-c5c(C)ccc6[nH]ncc56)c3C#N)CCC(C)(C)C4)[C@H]2CF)C1 (stereo in doubt) [Example 13-80]	KRAS G12C (Homo sapiens (Human), UniProt P01116, C118A/G12C)	0.045
C=CC(=O)N1CC2(CCN(c3nc4c(c(-c5c(F)ccc6[nH]ncc56)c3C#N)COC(C)(C)C4)C2)C1 [Example 13-149]	KRAS G12C (Homo sapiens (Human), UniProt P01116, C118A/G12C)	0.276
C=CC(=O)N1CC2(CCN(c3nc(-c4c(C)ccc5[nH]ncc45)c4ccc(OC)cc4n3)C2)C1 [Example 1-41]	KRAS G12C (Homo sapiens (Human), UniProt P01116, C118A/G12C)	0.882
C=CC(=O)N1CC2(CCN(c3nc4c(c(-c5cc(O)c(F)c6ccccc56)c3C#N)CC[C@@H]3C[C@H]43)C2)C1 (single isomer, unassigned) [Example 13-76]	KRAS G12C (Homo sapiens (Human), UniProt P01116, C118A/G12C)	0.04
C=CC(=O)N1CC2(CCN(c3nc4c(c(-c5c(C)ccc6[nH]nc(C)c56)n3)CCCC4)C2)C1 [Example 1-36]	KRAS G12C (Homo sapiens (Human), UniProt P01116, C118A/G12C)	1.66
C=CC(=O)N1CC2(CCN(c3nc4c(c(-c5c(C)ccc6cnn(C)c56)c3C#N)CC[C@@H]3C[C@H]43)C2)C1 (single isomer, unassigned) [Example 13-136]	KRAS G12C (Homo sapiens (Human), UniProt P01116, C118A/G12C)	0.078
C=CC(=O)N1CC2(CCN(c3cc4c(ncn4C)c(-c4c(C)ccc5[nH]ncc45)c3C#N)C2)C1 [Example 7]	KRAS G12C (Homo sapiens (Human), UniProt P01116, C118A/G12C)	0.879
C=CC(=O)N1CC2(CCN(c3nc4ccccc4c(-c4c(CC)ccc5[nH]ncc45)c3C#N)C2)C1 [Example 4]	KRAS G12C (Homo sapiens (Human), UniProt P01116, C118A/G12C)	1.05
C=CC(=O)N1CC2(CCN(c3nc4c(c(-c5cc(O)ccc5C)c3C#N)[C@H]3CC[C@@H]4C3)C2)C1 (single isomer, unassigned) [Example 14-13]	KRAS G12C (Homo sapiens (Human), UniProt P01116, C118A/G12C)	2.84
C=CC(=O)N1CC2(CCN(c3nc4c(c(-c5c(C)c(C)cc6cnn(C)c56)c3C#N)COC(C)(C)C4)C2)C1 (single isomer, unassigned) [Example 13-91]	KRAS G12C (Homo sapiens (Human), UniProt P01116, C118A/G12C)	9.27
C=CC(=O)N1CC2(CCN(c3nc4c(c(-c5c(C)ccc6[nH]ncc56)c3C#N)[C@@H]3CC[C@H]4C3)C2)C1 (single isomer, unassigned) [Example 14-6]	KRAS G12C (Homo sapiens (Human), UniProt P01116, C118A/G12C)	1.42
C=CC(=O)N1CC2(CCN(c3nc4c(c(-c5cc(O)cnc5Cl)c3C#N)C[C@H]3C[C@@H]4C3(C)C)C2)C1 [Example 12-35]	KRAS G12C (Homo sapiens (Human), UniProt P01116, C118A/G12C)	0.044
C=CC(=O)N1CC2(CCN(c3nc4c(c(-c5c(C)ccc6[nH]ncc56)c3COC)CCC(C)(C)C4)C2)C1 [Example 13-46]	KRAS G12C (Homo sapiens (Human), UniProt P01116, C118A/G12C)	0.685
